Target: CBP (Homo sapiens, UniProt Q92793)
Construct: endogenous in cells; host or cells: 22Rv1 (ATCC CRL-2505) human prostate cancer cells
Sequence (Q92793 whole entry): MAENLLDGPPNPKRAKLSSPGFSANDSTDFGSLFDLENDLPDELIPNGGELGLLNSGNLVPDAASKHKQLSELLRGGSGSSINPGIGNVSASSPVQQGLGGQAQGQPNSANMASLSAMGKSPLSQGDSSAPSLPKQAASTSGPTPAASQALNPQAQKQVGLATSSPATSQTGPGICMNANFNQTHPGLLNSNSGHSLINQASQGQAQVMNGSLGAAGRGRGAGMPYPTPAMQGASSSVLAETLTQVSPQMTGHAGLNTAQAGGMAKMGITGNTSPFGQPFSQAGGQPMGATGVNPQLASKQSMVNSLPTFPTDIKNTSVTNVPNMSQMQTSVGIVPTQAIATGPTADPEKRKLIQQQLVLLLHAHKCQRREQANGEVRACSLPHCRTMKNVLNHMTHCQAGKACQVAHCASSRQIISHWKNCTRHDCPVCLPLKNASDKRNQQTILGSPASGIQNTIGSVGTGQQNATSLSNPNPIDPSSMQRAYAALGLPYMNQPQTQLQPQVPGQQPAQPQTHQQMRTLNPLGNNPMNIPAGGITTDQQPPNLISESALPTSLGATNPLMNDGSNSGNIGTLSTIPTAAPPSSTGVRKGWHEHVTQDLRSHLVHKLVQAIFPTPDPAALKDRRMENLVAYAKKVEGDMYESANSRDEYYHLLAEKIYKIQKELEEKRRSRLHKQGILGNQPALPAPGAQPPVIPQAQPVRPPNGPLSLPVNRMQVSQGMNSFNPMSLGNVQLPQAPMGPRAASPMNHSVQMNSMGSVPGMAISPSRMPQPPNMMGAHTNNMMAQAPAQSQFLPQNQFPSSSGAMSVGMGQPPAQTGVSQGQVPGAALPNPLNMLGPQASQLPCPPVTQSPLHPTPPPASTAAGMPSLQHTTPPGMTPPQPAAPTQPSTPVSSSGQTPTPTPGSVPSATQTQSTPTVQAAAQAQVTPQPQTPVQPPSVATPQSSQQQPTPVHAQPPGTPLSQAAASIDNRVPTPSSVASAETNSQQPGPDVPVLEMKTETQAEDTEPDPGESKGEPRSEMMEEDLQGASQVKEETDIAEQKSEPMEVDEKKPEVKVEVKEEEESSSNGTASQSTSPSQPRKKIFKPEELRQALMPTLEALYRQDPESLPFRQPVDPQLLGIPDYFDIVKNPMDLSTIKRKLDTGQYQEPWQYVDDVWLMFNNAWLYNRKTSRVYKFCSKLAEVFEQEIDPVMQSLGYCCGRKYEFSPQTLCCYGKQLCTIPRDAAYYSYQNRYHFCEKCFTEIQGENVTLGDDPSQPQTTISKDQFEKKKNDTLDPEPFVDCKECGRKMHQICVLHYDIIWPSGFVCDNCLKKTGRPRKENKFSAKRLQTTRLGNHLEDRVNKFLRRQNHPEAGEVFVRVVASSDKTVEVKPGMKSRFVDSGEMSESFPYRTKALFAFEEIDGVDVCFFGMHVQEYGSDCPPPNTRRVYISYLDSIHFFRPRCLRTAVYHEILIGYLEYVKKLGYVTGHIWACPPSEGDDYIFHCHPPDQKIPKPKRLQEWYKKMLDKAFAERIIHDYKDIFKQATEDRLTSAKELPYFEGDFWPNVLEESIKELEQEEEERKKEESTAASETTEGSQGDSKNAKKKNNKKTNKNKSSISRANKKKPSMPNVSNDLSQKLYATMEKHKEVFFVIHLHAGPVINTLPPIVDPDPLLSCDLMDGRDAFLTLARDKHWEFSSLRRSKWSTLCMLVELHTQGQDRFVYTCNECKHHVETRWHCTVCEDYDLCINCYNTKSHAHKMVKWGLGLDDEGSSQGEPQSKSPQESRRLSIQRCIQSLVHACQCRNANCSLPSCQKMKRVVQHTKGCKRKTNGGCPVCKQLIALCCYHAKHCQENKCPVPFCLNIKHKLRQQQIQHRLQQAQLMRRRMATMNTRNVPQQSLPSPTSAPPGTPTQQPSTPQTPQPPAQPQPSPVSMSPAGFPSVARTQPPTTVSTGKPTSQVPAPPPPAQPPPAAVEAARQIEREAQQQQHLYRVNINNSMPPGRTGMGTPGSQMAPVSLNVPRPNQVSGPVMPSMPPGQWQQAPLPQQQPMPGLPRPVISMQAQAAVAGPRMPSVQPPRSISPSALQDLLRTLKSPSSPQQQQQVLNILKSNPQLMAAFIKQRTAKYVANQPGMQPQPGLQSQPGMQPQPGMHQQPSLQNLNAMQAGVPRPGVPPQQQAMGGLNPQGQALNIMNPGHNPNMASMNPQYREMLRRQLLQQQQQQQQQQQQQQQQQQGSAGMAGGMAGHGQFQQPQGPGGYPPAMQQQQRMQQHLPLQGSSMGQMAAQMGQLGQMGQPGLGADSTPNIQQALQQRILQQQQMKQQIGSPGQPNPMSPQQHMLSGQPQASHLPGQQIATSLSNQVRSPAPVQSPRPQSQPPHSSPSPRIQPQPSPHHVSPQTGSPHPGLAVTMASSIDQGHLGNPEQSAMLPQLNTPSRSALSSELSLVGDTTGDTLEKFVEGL
Assay: CBP degradation in 22Rv1 cells (5 h)
Format: cell-based
Details: 22Rv1, 5 h, 22Rv1 cells, 5 h; read-out: CBP Degradation (22Rv1, 5 h) DCmax
property: Dmax

Please review the following examples before continuing.
compound: CC(=O)N1Cc2c(N3CCCc4cc(-c5cnn(C)c5)c(C(F)F)cc43)nn(C3CCN(C(=O)CN4Cc5cc6c(cc5C4)C(=O)N(C4CCC(=O)NC4=O)C6=O)CC3)c2C(C)(C)C1 (stereo not drawn)
Dmax: < 50%

compound: CC(=O)N1CCc2cc3c(cc2C1)CCCN3c1nn(C2CCN(C(=O)CN3Cc4cc5c(cc4C3)C(=O)N(C3CCC(=O)NC3=O)C5=O)CC2)c2c1CN(C(C)=O)CC2 (stereo not drawn)
Dmax: > 70%

Q: Param item = Cc1noc(C)c1-c1ccc2c(c1)nc([C@@H]1CCCC(=O)N1c1ccc(F)c(F)c1)n2C1CCN(C(=O)CN2Cc3cc4c(cc3C2)C(=O)N(C2CCC(=O)NC2=O)C4)CC1 (stereo partly drawn) ; retrieve measured Dmax.
Result: < 50%

====

Molecular target: CBP (Homo sapiens)
Construct: endogenous in cells; host or cells: 22Rv1 (ATCC CRL-2505) human prostate cancer cells
Assay: CBP degradation in 22Rv1 cells (5 h)
Type: cell-based
Conditions: 22Rv1, 5 h, 22Rv1 cells, 5 h; read-out: CBP Degradation (22Rv1, 5 h) DCmax
property: Dmax

compound: CC(=O)N1CCc2c(c(N3CCCc4cc(-c5cnn(C)c5)c(C(F)F)cc43)nn2C2CCC(N3CCc4cc5c(cc4C3)C(=O)N(C3CCC(=O)NC3=O)C5=O)CC2)C1 (stereo not drawn) [CP-038]
Dmax: > 90%

Q: Consider the compound CC(=O)N1CCc2c(c(N3CCCc4cc(-c5ccccc5)c(C(F)F)cc43)nn2C2CCN(C(=O)CN3Cc4cc5c(cc4C3)C(=O)N(C3CCC(=O)NC3=O)C5=O)CC2)C1 (stereo not drawn) [CP-022] and give its measured Dmax.
Result: > 90%

Q: Which Dmax is listed for CC(=O)N1CCc2c(c(N3CCCc4cc(-c5cnn(C)c5)c(C(F)F)cc43)nn2C2CCN(C(=O)CCCN3CCc4cc5c(cc4C3)C(=O)N(C3CCC(=O)NC3=O)C5=O)CC2)C1 (stereo not drawn) [CP-004] ?
Result: > 70%

====

// reported Dmax for each item listed
Molecular target: CBP (Homo sapiens, UniProt Q92793)
Construct: endogenous in cells; host or cells: 22Rv1 (ATCC CRL-2505) human prostate cancer cells
Experiment: CBP degradation in 22Rv1 cells (5 h)
Format: cell-based
Conditions: 22Rv1, 5 h, 22Rv1 cells, 5 h; read-out: CBP Degradation (22Rv1, 5 h) DCmax

compound: CC(=O)N1CCc2c(c(N3CCCc4cc5c(cc43)C(C)CCC5)nn2C2CCN(C(=O)CN3Cc4cc5c(cc4C3)C(=O)N(C3CCC(=O)NC3=O)C5=O)CC2)C1 (stereo not drawn)
system: CBP (Homo sapiens, UniProt Q92793)
result: > 90%

compound: CC(=O)N1CCc2c(c(-c3cccc4ccncc34)nn2C2CCN(C(=O)CN3Cc4cc5c(cc4C3)C(=O)N(C3CCC(=O)NC3=O)C5=O)CC2)C1 (stereo not drawn)
system: CBP (Homo sapiens, UniProt Q92793)
result: < 50%

Q: Tell me the measured Dmax of Cn1cc(-c2cc3c(cc2C(F)F)N(c2nn(C4CCN(C(=O)CN5Cc6cc7c(cc6C5)C(=O)N(C5CCC(=O)NC5=O)C7=O)CC4)c4c2CN(CC(F)F)CC4)CCC3)cn1 (stereo not drawn) , please.
Result: < 50%

====

Target: CBP (Homo sapiens, UniProt Q92793)
Construct: endogenous in cells; host or cells: 22Rv1 (ATCC CRL-2505) human prostate cancer cells
Assay: CBP degradation in 22Rv1 cells (5 h)
Type: cell-based
Conditions: 22Rv1 cells, 5 h
DC50 by entry:

Consider the worked cases shown below.
molecule: CC(=O)N1CCc2c(c(N3CCCc4cc5c(cc43)C(C)(C)CCC5)nn2C2CCN(C(=O)CN3Cc4cc5c(cc4C3)C(=O)N(C3CCC(=O)NC3=O)C5=O)CC2)C1 (stereo not drawn)
DC50: > 1000 nM

molecule: CCc1cc2c(cc1C(F)F)N(c1nn(C3CCN(C(=O)CN4Cc5cc6c(cc5C4)C(=O)N(C4CCC(=O)NC4=O)C6=O)CC3)c3c1CN(C(C)=O)CC3)CCC2 (stereo not drawn)
DC50: < 10 nM

Now for a further molecule.
Q: // lookup DC50 for Cn1cc(-c2cc3c(cc2C(F)F)N(c2nn(C4CCN(C(=O)CN5Cc6cc7c(cc6C5)C(=O)N(C5CCC(=O)NC5=O)C7=O)CC4)c4c2CN(CC(F)(F)F)CC4)CCC3)cn1 (stereo not drawn)
Result: < 1000 nM

====

Target: CBP (Homo sapiens)
Construct: endogenous in cells; host or cells: 22Rv1 (ATCC CRL-2505) human prostate cancer cells
Assay: CBP degradation in 22Rv1 cells (5 h)
Assay type: cell-based
Conditions: 22Rv1, 5 h, 22Rv1 cells, 5 h; read-out: CBP Degradation (22Rv1, 5 h) DCmax
This section presents molecules with their documented Dmax values.

molecule: CC(=O)N1CCc2c(c(N3CCCc4cc(-c5cnn(C)c5)c(C(F)F)cc43)nn2C2CCC(CC(=O)N3Cc4cc5c(cc4C3)C(=O)N(C3CCC(=O)NC3=O)C5=O)CC2)C1 (centres unmarked)
Dmax: < 50%

molecule: CC(=O)N1CCc2c(c(N3CCCc4cc(Br)c(C(F)F)cc43)nn2C2CCN(C(=O)CN3Cc4cc5c(cc4C3)C(=O)N(C3CCC(=O)NC3=O)C5=O)CC2)C1 (centres unmarked)
Dmax: < 50%

molecule: CC(=O)N1CCc2c(c(N3CCCc4cc(-c5cnn(C6CCN(C(=O)CN7CCc8cc9c(cc8C7)C(=O)N(C7CCC(=O)NC7=O)C9=O)CC6)c5)c(C(F)F)cc43)nn2C2CCOCC2)C1 (centres unmarked)
Dmax: > 90%

molecule: CC(=O)N1CCc2c(c(N3CCCc4cc(-c5ccc(F)cc5)c(C(F)F)cc43)nn2C2CCN(C(=O)CN3Cc4cc5c(cc4C3)C(=O)N(C3CCC(=O)NC3=O)C5=O)CC2)C1 (centres unmarked)
Dmax: > 90%

Now consider a different molecule.
Q: Item CC(=O)N1CCc2c(c(N3CCCc4cc(-c5cnn(C)c5)c(C(F)F)cc43)nn2[C@H]2CC[C@H](CN3CCc4ccc5c(c4C3)C(=O)N(C3CCC(=O)NC3=O)C5=O)CC2)C1 (some centres unmarked) has what recorded Dmax?
Result: < 50%

====

Below: a set of entries, each annotated with reported DC50.
Biological target: CBP (Homo sapiens, UniProt Q92793)
Construct: endogenous in cells; host or cells: 22Rv1 (ATCC CRL-2505) human prostate cancer cells
Assay: CBP degradation in 22Rv1 cells (5 h)
Assay type: cell-based
Conditions: 22Rv1 cells, 5 h

Some solved entries appear below for comparison.
compound: Cn1cc(-c2cc3c(cc2C(F)F)N(c2nn(C4CCN(C(=O)CN5Cc6cc7c(cc6C5)C(=O)N(C5CCC(=O)NC5=O)C7=O)CC4)c4c2CN(CC(C)(F)F)CC4)CCC3)cn1 (stereo not drawn)
result: > 1000 nM
//
compound: CC(=O)N1CCc2c(c(N3CCCc4cc(-c5cccs5)c(C(F)F)cc43)nn2C2CCN(C(=O)CN3Cc4cc5c(cc4C3)C(=O)N(C3CCC(=O)NC3=O)C5=O)CC2)C1 (stereo not drawn)
result: < 10 nM

Continue with the compound presented below.
Q: Query (compound): CC(=O)N1CCc2c(c(N3CCCc4cc5c(cc43)CCCC5)nn2C2CCN(C(=O)CN3CCc4cc5c(cc4C3)C(=O)N(C3CCC(=O)NC3=O)C5=O)CC2)C1 (stereo not drawn) ; field requested: DC50
Result: < 10 nM

====

Molecular target: P300 (Homo sapiens, UniProt Q09472)
Construct: endogenous in cells; host or cells: 22Rv1 (ATCC CRL-2505) human prostate cancer cells
Sequence (Q09472 whole entry): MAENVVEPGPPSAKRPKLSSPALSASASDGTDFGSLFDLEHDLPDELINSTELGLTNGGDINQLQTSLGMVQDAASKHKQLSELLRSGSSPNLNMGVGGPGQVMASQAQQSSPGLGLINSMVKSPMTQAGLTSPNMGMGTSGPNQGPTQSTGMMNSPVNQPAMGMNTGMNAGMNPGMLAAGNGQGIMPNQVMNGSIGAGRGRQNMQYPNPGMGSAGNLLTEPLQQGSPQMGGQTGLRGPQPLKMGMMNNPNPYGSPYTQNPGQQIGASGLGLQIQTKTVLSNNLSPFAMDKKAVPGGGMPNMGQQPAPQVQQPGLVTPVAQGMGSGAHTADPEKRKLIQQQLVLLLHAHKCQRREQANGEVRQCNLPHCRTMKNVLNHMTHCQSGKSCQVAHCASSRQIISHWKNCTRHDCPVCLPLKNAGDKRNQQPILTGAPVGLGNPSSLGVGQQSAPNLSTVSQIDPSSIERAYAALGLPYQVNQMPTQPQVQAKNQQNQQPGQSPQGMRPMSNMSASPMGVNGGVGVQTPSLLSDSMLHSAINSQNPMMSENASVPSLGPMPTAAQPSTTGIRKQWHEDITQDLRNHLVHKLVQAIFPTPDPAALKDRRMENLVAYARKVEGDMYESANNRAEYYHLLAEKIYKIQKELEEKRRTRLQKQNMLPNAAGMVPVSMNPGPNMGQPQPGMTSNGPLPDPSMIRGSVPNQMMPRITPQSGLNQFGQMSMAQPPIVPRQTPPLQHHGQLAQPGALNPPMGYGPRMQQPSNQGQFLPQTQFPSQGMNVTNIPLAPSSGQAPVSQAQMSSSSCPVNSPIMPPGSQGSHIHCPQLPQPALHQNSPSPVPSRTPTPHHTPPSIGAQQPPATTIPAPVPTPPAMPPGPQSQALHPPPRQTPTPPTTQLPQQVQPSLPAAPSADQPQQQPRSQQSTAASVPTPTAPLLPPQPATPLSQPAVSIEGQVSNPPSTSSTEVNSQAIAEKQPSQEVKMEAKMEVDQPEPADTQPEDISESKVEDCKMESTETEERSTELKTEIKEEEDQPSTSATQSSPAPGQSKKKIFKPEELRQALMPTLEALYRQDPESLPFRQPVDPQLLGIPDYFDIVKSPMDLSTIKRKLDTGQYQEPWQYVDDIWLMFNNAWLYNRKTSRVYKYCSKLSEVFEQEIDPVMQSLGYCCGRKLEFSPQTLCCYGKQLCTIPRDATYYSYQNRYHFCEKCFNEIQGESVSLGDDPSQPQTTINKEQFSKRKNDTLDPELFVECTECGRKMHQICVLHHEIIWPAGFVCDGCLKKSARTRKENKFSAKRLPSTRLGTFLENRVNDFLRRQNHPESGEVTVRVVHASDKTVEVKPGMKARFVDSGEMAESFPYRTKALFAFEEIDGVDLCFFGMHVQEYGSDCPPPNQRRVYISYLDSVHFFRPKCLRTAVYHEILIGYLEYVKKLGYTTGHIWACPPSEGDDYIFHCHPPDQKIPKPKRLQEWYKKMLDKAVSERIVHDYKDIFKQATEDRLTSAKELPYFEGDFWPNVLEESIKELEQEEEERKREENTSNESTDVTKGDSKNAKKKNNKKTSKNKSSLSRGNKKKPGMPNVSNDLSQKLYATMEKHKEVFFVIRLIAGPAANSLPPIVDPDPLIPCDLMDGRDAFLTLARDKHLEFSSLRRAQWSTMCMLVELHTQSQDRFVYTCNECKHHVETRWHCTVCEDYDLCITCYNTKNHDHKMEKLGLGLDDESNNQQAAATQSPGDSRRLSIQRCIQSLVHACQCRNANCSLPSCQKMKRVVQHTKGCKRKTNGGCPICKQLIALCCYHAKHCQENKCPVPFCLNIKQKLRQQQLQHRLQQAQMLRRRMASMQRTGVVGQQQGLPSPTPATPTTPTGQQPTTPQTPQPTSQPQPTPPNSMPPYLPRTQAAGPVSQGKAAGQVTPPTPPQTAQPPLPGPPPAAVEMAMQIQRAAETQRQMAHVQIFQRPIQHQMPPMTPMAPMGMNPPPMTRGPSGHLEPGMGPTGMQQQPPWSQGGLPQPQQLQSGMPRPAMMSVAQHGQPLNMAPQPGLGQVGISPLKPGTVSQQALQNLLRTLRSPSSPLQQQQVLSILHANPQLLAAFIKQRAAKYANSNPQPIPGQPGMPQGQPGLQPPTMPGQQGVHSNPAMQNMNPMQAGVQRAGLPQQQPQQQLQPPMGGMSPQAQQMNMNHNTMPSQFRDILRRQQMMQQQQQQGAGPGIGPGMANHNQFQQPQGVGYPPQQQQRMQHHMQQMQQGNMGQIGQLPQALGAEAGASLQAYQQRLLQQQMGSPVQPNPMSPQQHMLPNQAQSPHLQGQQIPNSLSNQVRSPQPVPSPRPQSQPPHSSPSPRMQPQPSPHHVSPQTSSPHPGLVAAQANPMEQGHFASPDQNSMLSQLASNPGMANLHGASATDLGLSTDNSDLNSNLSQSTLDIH
Assay: P300 degradation in 22Rv1 cells (5 h)
Format: cell-based
Conditions: 22Rv1 cells, 5 h; read-out: P300 Degradation (22Rv1, 5 h) DCmax
Listing: Dmax of selected compounds

compound: Cn1cc(-c2cc3c(cc2C(F)F)N(c2nn(C4CCN(C(=O)CN5Cc6cc7c(cc6C5)C(=O)N(C5CCC(=O)NC5=O)C7=O)CC4)c4c2CN(CC(C)(F)F)CC4)CCC3)cn1 (stereo not drawn) [CP-059]
result: < 50%
//
compound: Cc1noc(C)c1-c1ccc2c(c1)nc([C@@H]1CCCC(=O)N1c1ccc(F)c(F)c1)n2C1CCN(C(=O)CCN2Cc3cc4c(cc3C2)C(=O)N(C2CCC(=O)NC2=O)C4=O)CC1 (stereo partly drawn) [CP-065]
result: < 50%
//
compound: CC(=O)N1CCc2c(c(N3CCCc4cc5c(cc43)C(C)(C)CCC5)nn2C2CCN(C(=O)CN3Cc4cc5c(cc4C3)C(=O)N(C3CCC(=O)NC3=O)C5=O)CC2)C1 (stereo not drawn) [CP-083]
result: < 50%

Q: Can you look up the measured Dmax of CC(=O)N1CCc2c(c(N3CCCc4cc5c(cc43)CCCC5)nn2C2CCN(C(=O)CN3CCc4cc5c(cc4C3)C(=O)N(C3CCC(=O)NC3=O)C5=O)CC2)C1 (stereo not drawn) [CP-078] for me?
Result: > 70%

Q: Endpoint output: Dmax of CC(=O)N1CCc2c(c(N3CCCc4cc5c(cc43)C(C)CCC5)nn2C2CCN(C(=O)CN3Cc4cc5c(cc4C3)C(=O)N(C3CCC(=O)NC3=O)C5=O)CC2)C1 (stereo not drawn) [CP-079] . Value?
Result: > 70%

Q: What Dmax value was documented for this compound, CC(=O)N1CCc2c(c(N3CCCc4cc(CCC(C)C)c(C(F)F)cc43)nn2C2CCN(C(=O)CN3Cc4cc5c(cc4C3)C(=O)N(C3CCC(=O)NC3=O)C5=O)CC2)C1 (stereo not drawn) [CP-026] ?
Result: > 70%

Q: Value lookup for Dmax; key = CC(=O)N1CCc2cc3c(cc2C1)CCCN3c1nn(C2CCN(C(=O)CN3Cc4cc5c(cc4C3)C(=O)N(C3CCC(=O)NC3=O)C5=O)CC2)c2c1CN(C(C)=O)CC2 (stereo not drawn) [CP-080]
Result: > 70%

Q: Dear colleague, I am looking for the recorded Dmax of the following compound: CC(=O)N1CCc2c(c(N3CCCc4cc(-c5cnn(C)c5)c(C(F)F)cc43)nn2[C@H]2CC[C@H](CN3CC4(Cc5cc6c(cc5C4)C(=O)N(C4CCC(=O)NC4=O)C6=O)C3)CC2)C1 (stereo partly drawn) [CP-088]
Result: > 70%

Q: Record request: Dmax value, item CC(=O)N1CCc2c(ccc3c2CCCN3c2nn(C3CCN(C(=O)CN4Cc5cc6c(cc5C4)C(=O)N(C4CCC(=O)NC4=O)C6=O)CC3)c3c2CN(C(C)=O)CC3)C1 (stereo not drawn) [CP-081]
Result: < 50%
